Tested on: Pseudomonas syringae pv. Tomato (Pst)
Details: 80 mg/L; watered twice; Pst 10^5; 2 weeks after infection
READOUT_LABEL: % reduction in necrotic spots compared to control (%)

INSERT INTO assay_data (compound, val) VALUES
  ('C[N+](C)(C)CCO.O=C([O-])c1c(F)ccc(Cl)c1O [choline 3-chloro-6-fluorosalicylate]', 47),
  ('C[N+](C)(C)CCO.O=C([O-])c1cc(Cl)ccc1O [choline 5-chlorosalicylate]', 80),
  ('COc1ccccc1C(=O)[O-].C[N+](C)(C)CCO [choline 2-methoxybenzoate]', 67),
  ('C[N+](C)(C)CCO.O=C([O-])c1c(Br)ccc(Cl)c1O [choline 3-chloro-6-bromosalicylate]', 40),
  ('CC(=O)Oc1c(Cl)cccc1C(=O)[O-].C[N+](C)(C)CCO [choline 2-acetoxy-3-chlorobenzoate]', 35),
  ('COc1c(Cl)cccc1C(=O)[O-].C[N+](C)(C)CCO [choline 2-methoxy-3-chlorobenzoate]', 39),
  ('CCOc1ccccc1C(=O)[O-].C[N+](C)(C)CCO [choline 2-ethoxybenzoate]', 82),
  ('CCOc1c(Cl)cccc1C(=O)[O-].C[N+](C)(C)CCO [choline 2-ethoxy-3-chlorobenzoate]', 39),
  ('C[N+](C)(C)CCO.O=C([O-])c1cccc(Cl)c1O [choline 3-chlorosalicylate]', 89),
  ('CC(=O)Oc1ccccc1C(=O)[O-].C[N+](C)(C)CCO [choline 2-acetoxybenzoate]', 69);

====

Test system: powdery mildew fungus
Assay: Direct effect on fungal infectivity (Example 23)
Assay type: in vivo
Settings: tobacco plant, 5 days after infection with solution of fungus and test substance; control 100
READOUT_LABEL: % of necrotic spots (%)

INSERT INTO assay_data (compound, experimental_target, readout_label, val) VALUES
  ('O=C([O-])c1cccc(Cl)c1O.[Na+] [sodium 3-chlorosalicylate]', 'powdery mildew fungus', '% of necrotic spots', 96),
  ('C[N+](C)(C)CCO.O=C([O-])c1cccc(Cl)c1O [choline 3-chlorosalicylate]', 'powdery mildew fungus', '% of necrotic spots', 100),
  ('O=C([O-])c1cccc(Cl)c1O.[K+] [potassium 3-chlorosalicylate]', 'powdery mildew fungus', '% of necrotic spots', 98),
  ('C[N+](C)(C)CCO.O=C([O-])c1cc(Cl)ccc1O [choline 5-chlorosalicylate]', 'powdery mildew fungus', '% of necrotic spots', 98);

====

Test system: Pseudomonas syringae pv. Tomato (Pst)
Details: 40 mg/L; watered twice; Pst 10^5; 2 weeks after infection
Overview of reported % reduction in necrotic spots compared to control across a group of compounds:
READOUT_LABEL: % reduction in necrotic spots compared to control (%)

INSERT INTO measurements (compound, val) VALUES
  ('COc1ccccc1C(=O)[O-].C[N+](C)(C)CCO [choline 2-methoxybenzoate]', 68),
  ('C[N+](C)(C)CCO.O=C([O-])c1c(Br)ccc(Cl)c1O [choline 3-chloro-6-bromosalicylate]', 29),
  ('CC(=O)Oc1c(Cl)cccc1C(=O)[O-].C[N+](C)(C)CCO [choline 2-acetoxy-3-chlorobenzoate]', 28),
  ('C[N+](C)(C)CCO.O=C([O-])c1cccc(Cl)c1O [choline 3-chlorosalicylate]', 72),
  ('CCOc1ccccc1C(=O)[O-].C[N+](C)(C)CCO [choline 2-ethoxybenzoate]', 60),
  ('C[N+](C)(C)CCO.O=C([O-])c1cc(Cl)ccc1O [choline 5-chlorosalicylate]', 36),
  ('C[N+](C)(C)CCO.O=C([O-])c1c(F)ccc(Cl)c1O [choline 3-chloro-6-fluorosalicylate]', 28),
  ('COc1c(Cl)cccc1C(=O)[O-].C[N+](C)(C)CCO [choline 2-methoxy-3-chlorobenzoate]', 25),
  ('CCOc1c(Cl)cccc1C(=O)[O-].C[N+](C)(C)CCO [choline 2-ethoxy-3-chlorobenzoate]', 33),
  ('CC(=O)Oc1ccccc1C(=O)[O-].C[N+](C)(C)CCO [choline 2-acetoxybenzoate]', 29);

Origin of measurements: patent US20260041093A1
